- System: NCI-H460 lung
Returns: one label drawn from true (active), false (inactive)

Tell me the recorded outcome of this test for OCCCCC#Cc1ccccc1C#Cc1cccnc1 .
false

Tell me the recorded outcome of this test for CCN(CC)CCCNCc1cc(-c2ccccc2)nc2cc(Cl)ccc12 .
false

Tell me the recorded outcome of this test for CC(=O)c1c[nH]c2ccc(-c3ccnc(Nc4ccc(NC(=O)C5CCCC5)c(CN5CCOCC5)c4)n3)cc12 .
true

Tell me the recorded outcome of this test for CN1CCN(CCCOc2ccc3nc(Nc4ccc(F)c(F)c4)ccc3c2)CC1 .
false

Tell me the recorded outcome of this test for COc1cc(F)c(F)cc1C(=O)c1cnc(NC2CCN(S(C)(=O)=O)CC2)nc1N .
false

Tell me the recorded outcome of this test for CCN1CCN(c2cc(C(=O)Nc3cccc(Nc4ccc5c(OC)cccc5n4)c3)cc(C(F)(F)F)c2)CC1 .
false

Tell me the recorded outcome of this test for O=C(Nc1ccc(-n2cc(-c3ccncc3)c(-c3ccc(O)c(Cl)c3)n2)cc1)c1ccc(Cl)c(C(F)(F)F)c1 .
false

Tell me the recorded outcome of this test for COc1ccc2nc(C)cc(Sc3nc4ccccc4s3)c2c1 .
false

Tell me the recorded outcome of this test for Cc1nc(NS(=O)(=O)c2ccc(NCN3C(=O)c4ccccc4C3=O)cc2)oc1C .
false

Tell me the recorded outcome of this test for O=C(O)COc1ccc(OCC(=O)O)cc1 .
true

---

- Tested on: SW-620 colon
- procedure summary: NCI tumour cell line growth inhibition, 48 h; in the data active = GI50 below about 0.43 µM; inactive = the rest
Returns: one label drawn from y for active, n for inactive

Tell me the recorded outcome of this test for COc1cc2nc(N3CCC[C@H](NC4=CC(=O)c5ccccc5C4=O)C3)nc(N)c2cc1OC .
n

Tell me the recorded outcome of this test for O=C(O)COc1ccc(OCC(=O)O)cc1 .
y

Tell me the recorded outcome of this test for CC(C)C[C@H](NC(=O)Cn1cccc(CNC(=O)c2ccccc2)c1=O)B(O)O .
y

Tell me the recorded outcome of this test for Nc1c(C(=O)c2cccc(C(O)CO)c2)cnn1-c1ccc(F)cc1 (configuration not stated) .
n

Tell me the recorded outcome of this test for CC(C)=Cc1cc(C)c2ccc(C)c3c2c1C(C)=C(O)C3=O .
n

Tell me the recorded outcome of this test for CCN1CCN(c2cc(C(=O)Nc3cccc(Nc4ccc5c(OC)cccc5n4)c3)cc(C(F)(F)F)c2)CC1 .
n

Tell me the recorded outcome of this test for CC(C)(C)c1ccc(C2CC(=O)C3=C(C2)Nc2ccccc2N(C(=O)c2ccccc2Cl)C3c2ccc(F)cc2)cc1 (configuration not stated) .
n

Tell me the recorded outcome of this test for CN1CCN(C(=O)c2ccc(NC(=O)Nc3ccc(-c4nc(N5CCOCC5)c5cccn5n4)cc3)cc2)CC1 .
y

Tell me the recorded outcome of this test for O=C1NC(=O)C(c2cccc(Cl)c2)=C1Nc1ccc(Cl)c(C(=O)O)c1 .
n

Tell me the recorded outcome of this test for COc1cc(OC)c2c(=O)cc(-c3ccccc3OCc3ccccc3)oc2c1OC .
n

Tell me the recorded outcome of this test for O=C(O)Cn1c2c(c3c1-c1ccccc1C3=O)C(=O)CCC2 .
n

Tell me the recorded outcome of this test for CCCCC#Cc1c(I)n(C2OC(CO[Si](C)(C)C(C)(C)C)C3OC(C)(C)OC32)c(=O)n(C(=O)c2ccccc2)c1=O (configuration not stated) .
n

Tell me the recorded outcome of this test for Cc1nc(NS(=O)(=O)c2ccc(NCN3C(=O)c4ccccc4C3=O)cc2)oc1C .
n

Tell me the recorded outcome of this test for FC(F)c1ncc(-c2ccc(C(F)(F)F)cc2)c(NC2CCCCCC2)n1 .
n

Tell me the recorded outcome of this test for COc1ccc(C2NN=C3c4ccccc4CCC32)cc1 (configuration not stated) .
n

Tell me the recorded outcome of this test for CCN(CC)CCCNCc1cc(-c2ccccc2)nc2cc(Cl)ccc12 .
n

Tell me the recorded outcome of this test for N#CC1=C(N)NC(N2CCOCC2)=NC12Nc1ccccc1O2 (configuration not stated) .
n

---

- Test system: ACHN renal
- procedure summary: NCI tumour cell line growth inhibition, 48 h; in the data active = GI50 below about 0.43 µM; inactive = the rest
Returns: one label drawn from active, inactive

Tell me the recorded outcome of this test for Cc1ccc2oc(=O)c3c(O)c4cccc(OC5OC(C)C6O[C@@H](c7ccccc7)OC6C5OC5OC(C)C(O)C(O)C5O)c4c4oc(=O)c1c2c34 (stereo not given in full) .
active

Tell me the recorded outcome of this test for N#C/C(=C/N1CCN(C(=O)c2ccco2)C1=S)C(=O)Nc1ccc(Cl)cc1 .
inactive

Tell me the recorded outcome of this test for CN1CCN(Cc2ccc(NC(=O)c3[nH]ncc3Nc3ncnc4[nH]ccc34)cc2)CC1 .
active

Tell me the recorded outcome of this test for CN1CCN(C(=O)c2ccc(NC(=O)Nc3ccc(-c4nc(N5CCOCC5)c5cccn5n4)cc3)cc2)CC1 .
active

Tell me the recorded outcome of this test for O=c1cc(-c2ccccc2)[nH]c2c1CCCC2 .
inactive

---

- System: HT29 colon
- procedure summary: NCI tumour cell line growth inhibition, 48 h
I'd be grateful if you could share measured GI50 for these entries.

Field GI50 (entry Fc1ccc2c(c1)C1=C(CCC2)C(c2ccc(Cl)cc2)NC(=S)N1 (centres undefined) ) reads 49.9 µM

Field GI50 (entry COC1=C(OC)C(=O)C(C/C=C(\C)CC/C=C(\C)CC/C=C(\C)CC/C=C(\C)CC/C=C(\C)CC/C=C(\C)CC/C=C(\C)CC/C=C(\C)CC/C=C(\C)CCC=C(C)C)=C(C)C1=O ) reads > 100 µM

Field GI50 (entry O=c1cc(-c2ccccc2)[nH]c2c1CCCC2 ) reads 2 µM

Field GI50 (entry CCN1CCN(c2cc(C(=O)Nc3cccc(Nc4ccc5c(OC)cccc5n4)c3)cc(C(F)(F)F)c2)CC1 ) reads 0.572 µM

Field GI50 (entry O=C(O)COc1ccc(OCC(=O)O)cc1 ) reads 0.709 µM

Field GI50 (entry Cc1ccc(S(=O)(=O)n2cc([C@@]3(O)C[C@H](CSC#N)OC3=O)c3ccccc32)cc1 ) reads 11.9 µM

Field GI50 (entry COc1cc(Cc2c(C)cc(OC)c3[nH]c4ccccc4c23)cc2c1[nH]c1ccccc12 ) reads 7.84 µM

Field GI50 (entry CCN(CC)CCCNCc1cc(-c2ccccc2)nc2cc(Cl)ccc12 ) reads 2.2 µM

Field GI50 (entry FC(F)c1ncc(-c2ccc(C(F)(F)F)cc2)c(NC2CCCCCC2)n1 ) reads > 10 µM

---

- Tested on: RPMI-8226 leukemia
- procedure summary: NCI tumour cell line growth inhibition, 48 h
endpoint label: GI50

Field GI50 (entry Nc1nc(Cl)nc2c1ncn2C1OC(CO)C(O)C1F (stereo not given) ) reads 29.8 µM

Field GI50 (entry Cc1nc(NS(=O)(=O)c2ccc(NCN3C(=O)c4ccccc4C3=O)cc2)oc1C ) reads > 100 µM

Field GI50 (entry O=C1NC(=O)C(=Cc2cn(Cc3ccccc3)c3ccccc23)C(=O)N1 ) reads 8.23 µM

Field GI50 (entry Nc1c(C(=O)c2cccc(C(O)CO)c2)cnn1-c1ccc(F)cc1 (stereo not given) ) reads > 25 µM

Field GI50 (entry Cc1c(Nc2nccc3cc(CN4CC[C@@H](O)C4)cnc23)cccc1-c1cccc(-c2nc3cc(CN4CC[C@@H](C(=O)O)C4)cc(C#N)c3o2)c1C ) reads 2.26 µM

---

- System: DU-145 prostate
- procedure summary: NCI tumour cell line growth inhibition, 48 h; in the data active = GI50 below about 0.43 µM; inactive = the rest
Returns: one label drawn from 1 (active), -1 (inactive)

Tell me the recorded outcome of this test for CCCCC#Cc1c(I)n(C2OC(CO[Si](C)(C)C(C)(C)C)C3OC(C)(C)OC32)c(=O)n(C(=O)c2ccccc2)c1=O (stereo not given) .
-1

Tell me the recorded outcome of this test for COc1ccc(Nc2ncnc3ccc(-c4cncc(NS(C)(=O)=O)c4)cc23)cc1Cl .
-1

Tell me the recorded outcome of this test for N#CC1=C(N)NC(N2CCOCC2)=NC12Nc1ccccc1O2 (stereo not given) .
-1

Tell me the recorded outcome of this test for FC(F)c1ncc(-c2ccc(C(F)(F)F)cc2)c(NC2CCCCCC2)n1 .
-1

Tell me the recorded outcome of this test for CC(C)(C)c1ccc(C2CC(=O)C3=C(C2)Nc2ccccc2N(C(=O)c2ccccc2Cl)C3c2ccc(F)cc2)cc1 (stereo not given) .
-1

Tell me the recorded outcome of this test for OCCCCC#Cc1ccccc1C#Cc1cccnc1 .
-1

Tell me the recorded outcome of this test for NC1=NC(SCc2ccccc2CCl)c2ncn(Cc3ccccc3CCl)c2N1 (stereo not given) .
-1

Tell me the recorded outcome of this test for Cc1ccc(S(=O)(=O)n2cc([C@@]3(O)C[C@H](CSC#N)OC3=O)c3ccccc32)cc1 .
-1

Tell me the recorded outcome of this test for CC12CCC(=O)C(O1)C1C(=O)c3ccc4c(ccc5ccccc54)c3C(=O)C12 (stereo not given) .
-1

Tell me the recorded outcome of this test for O=c1cc(-c2ccccc2)[nH]c2c1CCCC2 .
-1

Tell me the recorded outcome of this test for CCN1CCN(c2cc(C(=O)Nc3cccc(Nc4ccc5c(OC)cccc5n4)c3)cc(C(F)(F)F)c2)CC1 .
-1

Tell me the recorded outcome of this test for O=C1OCC2=C1C(c1cccc(C(F)(F)F)c1)c1cc3c(cc1N2CCO)OCCO3 (stereo not given) .
-1

Tell me the recorded outcome of this test for O=C(Nc1ccc(-n2cc(-c3ccncc3)c(-c3ccc(O)c(Cl)c3)n2)cc1)c1ccc(Cl)c(C(F)(F)F)c1 .
-1

Tell me the recorded outcome of this test for CC(C)C[C@H](NC(=O)Cn1cccc(CNC(=O)c2ccccc2)c1=O)B(O)O .
-1

Tell me the recorded outcome of this test for COc1cc2c3c(n(C)c(=O)c2cc1OC)-c1cc2c(cc1/C3=C\CCCCCBr)OCO2 .
-1

Tell me the recorded outcome of this test for Nc1nc(Cl)nc2c1ncn2C1OC(CO)C(O)C1F (stereo not given) .
1

Tell me the recorded outcome of this test for CCN(CC)CCCNCc1cc(-c2ccccc2)nc2cc(Cl)ccc12 .
-1

Tell me the recorded outcome of this test for COc1cc(F)c(F)cc1C(=O)c1cnc(NC2CCN(S(C)(=O)=O)CC2)nc1N .
-1

Tell me the recorded outcome of this test for COc1ccc(C2NN=C3c4ccccc4CCC32)cc1 (stereo not given) .
-1

Tell me the recorded outcome of this test for COC1=C(OC)C(=O)C(C/C=C(\C)CC/C=C(\C)CC/C=C(\C)CC/C=C(\C)CC/C=C(\C)CC/C=C(\C)CC/C=C(\C)CC/C=C(\C)CC/C=C(\C)CCC=C(C)C)=C(C)C1=O .
-1
